Kindly supply the reported % inhibition T4 70' 40 values for the records listed here.
# SYSTEM: bacteriophage T4 DNA polymerase (Enterobacteria phage T4)
# Construct: made in house
# EXPERIMENT: Counter-screen against bacteriophage T4 DNA polymerase
# Type: biochemical
# RECORDED CONDITIONS: DRC-1; read at 70'; concentration 40
Numbers only, in %.

* Nc1cc(Oc2ccc(O)c(N)c2)ccc1O | 14.4419
* Cc1cc2[nH]c(C(=O)Nc3ccc(F)cc3)c(CN3CCOCC3)c2s1 | 27.4388
* COc1ccc(C2CC(c3ccc(Cl)cc3Cl)Nc3nc(N)nn32)cc1OC (centres unmarked) | 8
* N#Cc1c(O)nc(N2CCCCC2)nc1-c1ccc2c(c1)OCO2 | -0.3941

Need % inhibition T4 70' 40 for each of these compounds.
1. Cc1nc(C)c2c(n1)N(CC1CCCCC1)C(=O)CC2
2. CC(=O)OCC1=C(C(=O)[O-])N2C(=O)[C@@H](NC(=O)Cc3cccs3)[C@H]2SC1.[Na+]

1. -3.675
2. 42.1653

----------
# SYSTEM: P. falciparum apicoplast DNA polymerase (Pf-apPOL) (Plasmodium falciparum, UniProt Q8ILY1)
# Sequence (Q8ILY1 entry or part of it): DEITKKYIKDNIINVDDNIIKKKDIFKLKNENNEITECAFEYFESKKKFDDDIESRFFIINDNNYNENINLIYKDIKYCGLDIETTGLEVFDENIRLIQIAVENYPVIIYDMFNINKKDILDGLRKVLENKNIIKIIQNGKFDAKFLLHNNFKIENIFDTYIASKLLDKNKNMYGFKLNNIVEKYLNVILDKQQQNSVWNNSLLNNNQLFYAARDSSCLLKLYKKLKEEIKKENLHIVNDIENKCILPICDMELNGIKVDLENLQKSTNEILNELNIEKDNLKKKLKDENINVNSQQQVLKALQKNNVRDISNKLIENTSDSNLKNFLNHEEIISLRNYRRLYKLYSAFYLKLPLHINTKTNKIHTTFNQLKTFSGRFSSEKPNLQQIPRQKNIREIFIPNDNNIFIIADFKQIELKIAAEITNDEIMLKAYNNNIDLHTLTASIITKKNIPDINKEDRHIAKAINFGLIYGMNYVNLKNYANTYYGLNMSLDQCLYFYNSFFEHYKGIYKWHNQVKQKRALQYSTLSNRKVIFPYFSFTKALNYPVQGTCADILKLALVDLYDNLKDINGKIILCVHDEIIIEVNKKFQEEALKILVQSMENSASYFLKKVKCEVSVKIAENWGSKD
# EXPERIMENT: Fluorescence-based high-throughput DNA polymerase assay (molecular beacon), primary screen and dose-response;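 as to % inhibition ApPOL 90': test concentration in µM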
# Assay type: biochemical
# RECORDED CONDITIONS: DRC-2; 90'; concentration 2.5
Kindly supply the reported % inhibition ApPOL 90' values for the records listed here.
Answers are plain numbers, in %.

* Cc1ccc(C2=N/C(=C\c3ccc(I)o3)C(=O)O2)cc1[N+](=O)[O-] [KU0073890] | 17
* Cc1cccc(-c2nnc3ccc(NS(=O)(=O)c4ccc(C)c(C)c4)nn23)c1 [Molecule 40] | 3.29
* O=C(Cc1cc(=O)[nH]c(SCc2ccccc2)n1)Nc1ccc2c(c1)OCO2 [Molecule 46] | -1
* Cc1ccc2c(C(=O)NCCc3cccnc3)cc(NC(=O)C(C)C)cc2n1 [KU0206096] | 1.09

Field: next molecule
Fill in the blank: the reported % inhibition ApPOL 90' of Cc1cc(C)c2c(O)nc(SCC(=O)c3ccc(O)c(O)c3)nc2n1 [Molecule 88] is ____.
28

----------
Kindly supply the reported % inhibition T4 40' 10 values for the records listed here.
# SYSTEM: bacteriophage T4 DNA polymerase (Enterobacteria phage T4, UniProt P04415)
# Construct: made in house
# Sequence (P04415 1-898): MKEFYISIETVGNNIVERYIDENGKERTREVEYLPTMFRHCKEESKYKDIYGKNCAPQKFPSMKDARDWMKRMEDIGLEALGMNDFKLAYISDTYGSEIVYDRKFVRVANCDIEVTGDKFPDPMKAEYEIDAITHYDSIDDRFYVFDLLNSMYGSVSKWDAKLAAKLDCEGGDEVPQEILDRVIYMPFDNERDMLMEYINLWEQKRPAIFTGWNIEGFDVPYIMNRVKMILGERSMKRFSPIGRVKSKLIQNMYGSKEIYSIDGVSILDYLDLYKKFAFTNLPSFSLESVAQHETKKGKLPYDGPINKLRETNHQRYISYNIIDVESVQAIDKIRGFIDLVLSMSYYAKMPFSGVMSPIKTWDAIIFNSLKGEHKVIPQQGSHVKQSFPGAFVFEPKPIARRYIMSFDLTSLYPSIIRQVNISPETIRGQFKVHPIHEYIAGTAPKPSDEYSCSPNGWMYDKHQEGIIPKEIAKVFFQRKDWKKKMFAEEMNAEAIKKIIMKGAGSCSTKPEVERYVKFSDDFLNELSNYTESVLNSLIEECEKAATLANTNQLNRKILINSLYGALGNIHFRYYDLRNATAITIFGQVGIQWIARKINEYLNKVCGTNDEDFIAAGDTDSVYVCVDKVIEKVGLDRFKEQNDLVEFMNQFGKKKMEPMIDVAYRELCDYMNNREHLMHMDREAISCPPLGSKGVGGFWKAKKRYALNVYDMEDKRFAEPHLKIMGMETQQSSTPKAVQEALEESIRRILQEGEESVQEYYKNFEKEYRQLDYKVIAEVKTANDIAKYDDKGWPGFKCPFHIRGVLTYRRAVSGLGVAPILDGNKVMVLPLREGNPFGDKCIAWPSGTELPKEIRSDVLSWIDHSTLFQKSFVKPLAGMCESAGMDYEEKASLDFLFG
# EXPERIMENT: Counter-screen against bacteriophage T4 DNA polymerase
# Assay type: biochemical
# RECORDED CONDITIONS: DRC-2; read at 40'; concentration 10

* CC(C)CC(C(=O)O)N1C(=O)C2C3C=CC(C2C1=O)C1C(=O)N(C(CC(C)C)C(=O)O)C(=O)C31 (centres unmarked) | 10%
* O=C1CSC2=NC3=C(CCc4ccccc43)C(c3cccs3)N12 (centres unmarked) | 6.37%
* Cn1nc(-c2nnc(-c3ccccc3F)o2)c2c1CCN(C(=O)c1ccccc1Cl)C2 | -3%
* CC(=O)OCC1=C(C(=O)[O-])N2C(=O)[C@@H](NC(=O)Cc3cccs3)[C@H]2SC1.[Na+] | 11%
* Cc1cccc(-c2noc(C(=O)NNC(=O)C(Cl)(Cl)Cl)n2)c1 | -5%

Need % inhibition T4 40' 10 for each of these compounds.
1. O=C(c1ccccc1)N1CCc2c(nc3cc(-c4ccccc4)[nH]n3c2=O)C1
2. Cn1nc(-c2nc(-c3ccccc3)no2)c2c1CCN(C(=O)Cc1cccs1)C2
3. Cc1nc(C)c2c(n1)N(CC1CCCCC1)C(=O)CC2

1: -11%; 2: 17%; 3: 6%

----------
# SYSTEM: UniProt:Q8ILY1
# EXPERIMENT: Fluorescence-based high-throughput DNA polymerase assay (molecular beacon), primary screen and dose-response
# Assay type: biochemical
# RECORDED CONDITIONS: DRC-2; 90'; concentration 5
OUTCOME MEASURE: % inhibition ApPOL 90' (%)
Give bare numbers, in %.

- COc1ccc(-c2cc3nc4c(c(=O)n3[nH]2)CCN(C(=O)CCc2ccccc2)C4)cc1: 13
- O=C(NCC1CCN(C2CCCC2)CC1)C(=O)NC1CCCC1: -11
- CC(C)(C)c1cc(C(=O)C(C#N)=NNc2cccc(Cl)c2)no1: 21

Need % inhibition ApPOL 90' for each of these compounds.
1. COc1ccc(C=C2Oc3c(ccc4c3CN(c3ccc5c(c3)OCO5)CO4)C2=O)cc1OC
2. O=c1cc(CN2CCCCC2)c2cc3c(cc2o1)OCO3
3. COc1ccc(C(=O)N2CCc3c(nc4cc(-c5ccccc5Cl)[nH]n4c3=O)C2)cn1
4. CCCCc1ccc(NC(=O)CSc2nc(O)c(C#N)c(C3CCCCC3)n2)c(C)c1

1. -12
2. -0.711
3. 4.56
4. 4

Give UniProt:Q8ILY1 % inhibition ApPOL 90' for CCCCCCCCCCCCCCCCCC(=O)CCN(C)C
3.32

----------
# SYSTEM: P. falciparum apicoplast DNA polymerase (Pf-apPOL) (Plasmodium falciparum, UniProt Q8ILY1)
# EXPERIMENT: Fluorescence-based high-throughput DNA polymerase assay (molecular beacon), primary screen and dose-response
# Type: biochemical
# RECORDED CONDITIONS: DRC-1; 10'; concentration 20
OUTCOME MEASURE: % inhibition Apo pol 10' (%)
One number for each entry, in %.

Take a look at these entries with their results.
• Cc1ccc(NC(=O)Cn2ccc3c(=O)[nH]ccc32)cc1F [Molecule 48, O=C(Cn1ccc2c1cc[nH]c2=O)Nc1ccc(c(c1)F)C] = 59.9779
• Nc1c(S(=O)(=O)O)cc(Nc2ccccc2)c2c1C(=O)c1ccccc1C2=O = 88.2417
• O=C(Nc1nnc(-c2ccno2)o1)c1ccc2ncsc2c1 = 64.2838

Need % inhibition Apo pol 10' for each of these compounds.
1. CC1(C)CC(=O)C2=C(C1)OC1=C(C(=O)CC(C)(C)C1)C2c1ccc(O)cc1
2. CSC(C)C(=O)C=CN(C)C (centres unmarked)
3. N#CC(=NNc1cc(C(F)(F)F)cc(C(F)(F)F)c1)C(=O)c1ccco1
4. COc1ccc(C(=O)Nc2cccc(-c3nc4ncccc4o3)c2)cc1[N+](=O)[O-]
5. COc1ccc(-c2c(C(F)(F)F)nn3c(=O)cc(-c4cccc([N+](=O)[O-])c4)[nH]c23)cc1

[40.5777, 40.6618, 55.9301, 59.4699, 92.9592]

----------
# SYSTEM: P. falciparum apicoplast DNA polymerase (Pf-apPOL) (Plasmodium falciparum, UniProt Q8ILY1)
# EXPERIMENT: Fluorescence-based high-throughput DNA polymerase assay (molecular beacon), primary screen and dose-response;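 as to % inhibition ApPOL 90': test concentration in µM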
# Format: biochemical
# RECORDED CONDITIONS: DRC-2; 90'; concentration 10
Decision: % inhibition ApPOL 90' >= 30% yields class 1, all other cases yield class 0.

Reference set, count: 4
- COc1ccc(C=C2Oc3c(ccc4c3CN(c3ccc5c(c3)OCO5)CO4)C2=O)cc1OC: class 0
- O=C(CSc1nnc(-c2ccco2)[nH]1)c1ccc(Cl)cc1: class 0
- O=c1cc(CN2CCCCC2)c2cc3c(cc2o1)OCO3: class 0
- O=[N+]([O-])/C=C/c1ccc(-c2ccc(Br)cc2)o1: class 1

Please look at the following compound next.
Tell me whether % inhibition ApPOL 90' is at least 30% here: O=C(O)c1cccc(N2N=C(C(F)(F)F)/C(=C/c3ccc(-c4ccccc4[N+](=O)[O-])o3)C2=O)c1
class 1
